Assay: Antifungal activity against Chrysosporium keratinophilum MTCC 2827 at 0.5 mg/mL after 72 hrs by agar-well diffusion method
Type: functional
Metric: inhibition zone (IZ) (mm)
Express it in mm; write the number only.

Reference set, count: 3
>>> assay_value("COC(=O)C1=C(C)NC(C)=C(C(=O)OC)C1c1c[nH]nc1-c1ccc(Cl)cc1")
4
>>> assay_value("CCOC(=O)C1=C(C)NC(C)=C(C(=O)OCC)C1c1c[nH]nc1-c1ccc(-c2ccccc2)cc1")
0
>>> assay_value("CCOC(=O)C1=C(C)NC(C)=C(C(=O)OCC)C1c1c[nH]nc1-c1ccc(SC)cc1")
0

INPUT: Fill in: inhibition zone (IZ) of `COC(=O)C1=C(C)NC(C)=C(C(=O)OC)C1c1c[nH]nc1-c1ccc(SC)cc1` is ___
OUTPUT: 0

INPUT: Moving on to `CCOC(=O)C1=C(C)NC(C)=C(C(=O)OCC)C1c1c[nH]nc1-c1ccc(OC)cc1`
OUTPUT: 2

INPUT: Moving on to `COC(=O)C1=C(C)NC(C)=C(C(=O)OC)C1c1c[nH]nc1-c1ccc(Cl)cc1Cl`
OUTPUT: 1

INPUT: Moving on to `CCOC(=O)C1=C(C)NC(C)=C(C(=O)OCC)C1c1c[nH]nc1-c1ccc(Cl)cc1Cl`
OUTPUT: 2

INPUT: Moving on to `COC(=O)C1=C(C)NC(C)=C(C(=O)OC)C1c1c[nH]nc1-c1cc(Cl)sc1Cl`
OUTPUT: 2

====

Experiment: Antifungal activity against Chrysosporium keratinophilum MTCC 2827 at 0.5 mg/mL after 72 hrs by agar-well diffusion method
Format: functional
Metric: inhibition zone (IZ)

>>> assay_value("CCOC(=O)C1=C(C)NC(C)=C(C(=O)OCC)C1c1c[nH]nc1-c1cc(Cl)sc1Cl")
"2 mm"

INPUT: Fill in: inhibition zone (IZ) of `CCOC(=O)C1=C(C)NC(C)=C(C(=O)OCC)C1c1c[nH]nc1-c1ccc(Cl)cc1` is ___
OUTPUT: 0 mm

INPUT: Moving on to `COC(=O)C1=C(C)NC(C)=C(C(=O)OC)C1c1c[nH]nc1-c1ccc(-c2ccccc2)cc1`
OUTPUT: 2 mm

INPUT: Moving on to `OC(Cn1cncn1)(Cn1cncn1)c1ccc(F)cc1F`
OUTPUT: 15 mm

INPUT: Moving on to `COC(=O)C1=C(C)NC(C)=C(C(=O)OC)C1c1c[nH]nc1-c1ccc(OC)cc1`
OUTPUT: 0 mm

====

Test system: Candida albicans
Experiment: Antifungal activity against Candida albicans MTCC 3017 at 1 mg/mL after 72 hrs by agar-well diffusion method
Format: functional
Details: MTCC 3017, 72 h, read-out: DIZ
Metric: zone of inhibition at 1000 µg/mL (mm)
Express it in mm; write the number only.

Reference set, count: 4
>>> assay_value("COC(=O)C1=C(C)NC(C)=C(C(=O)OC)C1c1c[nH]nc1-c1ccc(SC)cc1")
0
>>> assay_value("CCOC(=O)C1=C(C)NC(C)=C(C(=O)OCC)C1c1c[nH]nc1-c1ccc(SC)cc1")
0
>>> assay_value("COC(=O)C1=C(C)NC(C)=C(C(=O)OC)C1c1c[nH]nc1-c1ccc(-c2ccccc2)cc1")
0
>>> assay_value("COC(=O)C1=C(C)NC(C)=C(C(=O)OC)C1c1c[nH]nc1-c1ccc(Cl)cc1")
3

Now for another entry.
INPUT: Fill in: zone of inhibition at 1000 µg/mL of `OC(Cn1cncn1)(Cn1cncn1)c1ccc(F)cc1F` is ___
OUTPUT: 22

====

Test system: Candida albicans
Assay: Antifungal activity against Candida albicans MTCC 3017 at 1 mg/mL after 72 hrs by agar-well diffusion method
Assay type: functional
Settings: MTCC 3017, 72 h, read-out: DIZ
Recorded zone of inhibition at 1000 µg/mL for the following molecules
Express it in mm; write the number only.

>>> assay_value("CCOC(=O)C1=C(C)NC(C)=C(C(=O)OCC)C1c1c[nH]nc1-c1ccc(OC)cc1")
3

INPUT: Fill in: zone of inhibition at 1000 µg/mL of `COC(=O)C1=C(C)NC(C)=C(C(=O)OC)C1c1c[nH]nc1-c1ccc(Cl)cc1Cl` is ___
OUTPUT: 3

INPUT: Moving on to `COC(=O)C1=C(C)NC(C)=C(C(=O)OC)C1c1c[nH]nc1-c1cc(Cl)sc1Cl`
OUTPUT: 3

INPUT: Moving on to `CCOC(=O)C1=C(C)NC(C)=C(C(=O)OCC)C1c1c[nH]nc1-c1ccc(Cl)cc1`
OUTPUT: 4

INPUT: Moving on to `COC(=O)C1=C(C)NC(C)=C(C(=O)OC)C1c1c[nH]nc1-c1ccc(OC)cc1`
OUTPUT: 0

INPUT: Moving on to `CCOC(=O)C1=C(C)NC(C)=C(C(=O)OCC)C1c1c[nH]nc1-c1cc(Cl)sc1Cl`
OUTPUT: 5

INPUT: Moving on to `CCOC(=O)C1=C(C)NC(C)=C(C(=O)OCC)C1c1c[nH]nc1-c1ccc(-c2ccccc2)cc1`
OUTPUT: 6

INPUT: Moving on to `CCOC(=O)C1=C(C)NC(C)=C(C(=O)OCC)C1c1c[nH]nc1-c1ccc(Cl)cc1Cl`
OUTPUT: 4

====

Recorded zone of inhibition at 500 µg/mL for the following molecules
Tested on: Candida albicans
Assay: Antifungal activity against Candida albicans MTCC 3017 at 0.5 mg/mL after 72 hrs by agar-well diffusion method
Type: functional
Details: MTCC 3017, 72 h, read-out: DIZ
Express it in mm; write the number only.

INPUT: Fill in: zone of inhibition at 500 µg/mL of `COC(=O)C1=C(C)NC(C)=C(C(=O)OC)C1c1c[nH]nc1-c1ccc(Cl)cc1` is ___
OUTPUT: 1

INPUT: Moving on to `CCOC(=O)C1=C(C)NC(C)=C(C(=O)OCC)C1c1c[nH]nc1-c1ccc(OC)cc1`
OUTPUT: 1

INPUT: Moving on to `CCOC(=O)C1=C(C)NC(C)=C(C(=O)OCC)C1c1c[nH]nc1-c1ccc(Cl)cc1Cl`
OUTPUT: 1

INPUT: Moving on to `CCOC(=O)C1=C(C)NC(C)=C(C(=O)OCC)C1c1c[nH]nc1-c1ccc(Cl)cc1`
OUTPUT: 2

====

Test: Antifungal activity against Chrysosporium keratinophilum MTCC 2827 at 0.25 mg/mL after 72 hrs by agar-well diffusion method
Type: functional
Recorded inhibition zone (IZ) for the following molecules

Reference set, count: 3
>>> assay_value("COC(=O)C1=C(C)NC(C)=C(C(=O)OC)C1c1c[nH]nc1-c1cc(Cl)sc1Cl")
"1 mm"
>>> assay_value("CCOC(=O)C1=C(C)NC(C)=C(C(=O)OCC)C1c1c[nH]nc1-c1ccc(-c2ccccc2)cc1")
"0 mm"
>>> assay_value("COC(=O)C1=C(C)NC(C)=C(C(=O)OC)C1c1c[nH]nc1-c1ccc(OC)cc1")
"0 mm"

Now for another entry.
INPUT: Fill in: inhibition zone (IZ) of `OC(Cn1cncn1)(Cn1cncn1)c1ccc(F)cc1F` is ___
OUTPUT: 14 mm

====

Tested on: Escherichia coli
Assay: Antibacterial activity against Escherichia coli ATCC 25922 at 1 mg/mL after 24 hrs by agar-well diffusion method
Format: functional
Conditions: ATCC 25922, 24 h, read-out: IZ
Recorded zone of inhibition at 1000 µg/mL for the following compounds
Express it in mm; write the number only.

Reference set, count: 3
>>> assay_value("CCOC(=O)C1=C(C)NC(C)=C(C(=O)OCC)C1c1c[nH]nc1-c1ccc(Cl)cc1")
17
>>> assay_value("CCOC(=O)C1=C(C)NC(C)=C(C(=O)OCC)C1c1c[nH]nc1-c1ccc(OC)cc1")
12
>>> assay_value("CN[C@@H]1[C@H](O[C@H]2[C@H](O[C@H]3[C@H](O)[C@@H](O)[C@H](N=C(N)N)[C@@H](O)[C@@H]3N=C(N)N)O[C@@H](C)[C@]2(O)C=O)O[C@@H](CO)[C@H](O)[C@H]1O")
16

Now for another entry.
INPUT: Fill in: zone of inhibition at 1000 µg/mL of `CCOC(=O)C1=C(C)NC(C)=C(C(=O)OCC)C1c1c[nH]nc1-c1ccc(-c2ccccc2)cc1` is ___
OUTPUT: 13

The values you see were collected from ChEMBL document CHEMBL1909541.
